System Under Test: CYP3A4 (Homo sapiens)
Construct: tissue Corning or Xenotech; host or cells: human liver microsomes
Sequence (P08684 whole entry): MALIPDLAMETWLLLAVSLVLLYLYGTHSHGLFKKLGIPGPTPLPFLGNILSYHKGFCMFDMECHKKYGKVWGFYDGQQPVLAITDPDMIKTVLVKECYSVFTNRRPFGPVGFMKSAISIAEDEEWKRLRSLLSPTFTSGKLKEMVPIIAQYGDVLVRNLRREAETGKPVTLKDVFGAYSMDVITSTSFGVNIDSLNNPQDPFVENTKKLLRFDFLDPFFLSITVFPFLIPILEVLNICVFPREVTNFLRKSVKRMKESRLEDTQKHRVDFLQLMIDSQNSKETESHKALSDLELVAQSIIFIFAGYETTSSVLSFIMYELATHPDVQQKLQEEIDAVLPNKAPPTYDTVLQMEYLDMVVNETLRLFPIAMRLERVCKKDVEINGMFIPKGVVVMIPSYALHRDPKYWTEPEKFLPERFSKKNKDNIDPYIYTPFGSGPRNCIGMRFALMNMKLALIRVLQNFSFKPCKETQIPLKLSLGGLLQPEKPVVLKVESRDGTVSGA
Assay: CYP450 inhibition in human liver microsomes, CYP3A4 (midazolam and testosterone substrates)
Type: in vitro ADME
Experimental Context: pH 7.4, probe testosterone, testosterone substrate, read-out: % CYP inhibition @ 10 µM 3A4 (testosterone)
Measure Name: inhibition at 5 min, 10 µM
Hi, when you answer, please include the unit after the number. Thanks!

Guide cases for inhibition at 5 min, 10 µM, answers given:
>>> df
                                   molecule  result
0  CC1(n2c(-c3ccc(NC(=O)C(=O)Nc4ccc(N5CCC6(CCOC6)CC5)cc4)cc3)cc3cc(F)c(-c4nnn[nH]4)cc32)CCC1 [Example 68]   2.46%
1  O=C(Nc1ccc(-c2cc3cc(F)c(-c4nnn[nH]4)cc3n2C2CCC2)cc1)C(=O)Nc1ccc(N2CCC(CO)CC2)cc1 [Example 23]  -22.6%

Let's switch to this molecule now.
I am curious: what inhibition at 5 min, 10 µM value has been reported for O=C(Nc1ccc(-c2cc3cc(F)c(-c4nnn[nH]4)cc3n2C2CCC2)cc1)C(=O)Nc1ccc(N2CCC3(CCOC3)CC2)cc1 [Example 67] ?
-0.87%

----------
Overview of reported IC50PTP/IC50SHP2 MEG2 across a group of compounds:
System Under Test: MEG2 (Homo sapiens)
Construct: made in house; host or cells: E. coli
Sequence (P43378 whole entry): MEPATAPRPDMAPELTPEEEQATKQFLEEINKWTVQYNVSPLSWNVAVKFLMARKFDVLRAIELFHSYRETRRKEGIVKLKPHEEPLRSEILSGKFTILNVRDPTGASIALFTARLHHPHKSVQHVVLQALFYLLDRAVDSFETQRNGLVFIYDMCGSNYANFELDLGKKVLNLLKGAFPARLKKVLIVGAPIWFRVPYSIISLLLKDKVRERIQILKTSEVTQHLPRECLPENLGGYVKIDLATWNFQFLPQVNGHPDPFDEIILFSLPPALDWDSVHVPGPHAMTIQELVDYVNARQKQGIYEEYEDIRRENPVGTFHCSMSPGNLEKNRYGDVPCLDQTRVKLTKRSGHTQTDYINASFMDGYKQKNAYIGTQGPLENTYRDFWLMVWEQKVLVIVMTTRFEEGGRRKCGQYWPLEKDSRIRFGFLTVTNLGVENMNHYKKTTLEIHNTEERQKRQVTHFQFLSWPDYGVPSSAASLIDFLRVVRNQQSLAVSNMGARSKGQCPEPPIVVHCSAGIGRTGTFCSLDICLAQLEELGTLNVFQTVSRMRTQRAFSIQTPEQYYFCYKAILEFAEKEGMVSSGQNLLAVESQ
Assay: Tyrosine phosphatase selectivity (pNPP substrate), MEG2
Assay type: biochemical
Experimental Context: selectivity ratio MEG2 over SHP2
Give the figure by itself; no unit, no explanation.

Guide cases for IC50PTP/IC50SHP2 MEG2, answers given:
>>> df
                            compound_string  readout_number
0  Cn1cc(-c2ccc(NC(=O)C(=O)Nc3ccc(-c4cc5cc(F)c(-c6noc(=O)[nH]6)cc5n4C4CCC4)cc3)cc2)cn1            17.1
1  O=C(Nc1ccc(-c2oc3cc(F)c(-c4nnn[nH]4)cc3c2C2CCC2)cc1)C(=O)Nc1ccc(N2CCC3(CCOC3)CC2)cc1           167.5
2  O=C(Nc1ccc(-c2cc3cc(F)c(-c4nnn[nH]4)cc3n2C2CCC2)cc1)C(=O)Nc1ccc(N2CCC3(CCOC3)CC2)cc1            52.0
3  O=C(Nc1ccc(-c2ccsc2)cc1)C(=O)Nc1ccc(-c2cc3cnc(-c4nnn[nH]4)nc3n2C2CCC2)cc1           380.8
4  O=C(Nc1ccc(-c2ccsc2)cc1)C(=O)Nc1ccc(-c2cc3cc(F)c(-c4nnn[nH]4)cc3n2C2CCC2)cc1           762.1

Let's switch to this compound now.
I am curious: what IC50PTP/IC50SHP2 MEG2 value has been reported for CC1(n2c(-c3ccc(NC(=O)C(=O)Nc4ccc(N5CCC6(CCOC6)CC5)cc4)cc3)cc3cc(F)c(-c4nnn[nH]4)cc32)CCC1 ?
18.5

----------
System Under Test: PP5 (Homo sapiens)
Construct: made in house; host or cells: E. coli
Sequence (P53041 1-499): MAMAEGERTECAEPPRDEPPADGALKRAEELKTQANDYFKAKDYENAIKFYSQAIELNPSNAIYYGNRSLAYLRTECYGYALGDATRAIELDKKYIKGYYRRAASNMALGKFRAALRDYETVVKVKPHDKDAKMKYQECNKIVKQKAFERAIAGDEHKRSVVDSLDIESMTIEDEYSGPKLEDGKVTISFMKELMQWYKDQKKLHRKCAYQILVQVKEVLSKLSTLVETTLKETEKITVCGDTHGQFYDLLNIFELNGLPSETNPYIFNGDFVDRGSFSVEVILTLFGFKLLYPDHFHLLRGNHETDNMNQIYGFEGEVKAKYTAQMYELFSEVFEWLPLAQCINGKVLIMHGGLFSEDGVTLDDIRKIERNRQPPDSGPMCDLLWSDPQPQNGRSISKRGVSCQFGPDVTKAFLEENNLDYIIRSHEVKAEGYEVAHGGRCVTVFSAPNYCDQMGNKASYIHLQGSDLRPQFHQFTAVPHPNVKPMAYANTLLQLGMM
Assay: Tyrosine phosphatase selectivity (pNPP substrate), PP5
Type: biochemical
Experimental Context: selectivity ratio PP5 over SHP2
Overview of reported IC50PTP/IC50SHP2 PP5 across a group of compounds:

Guide cases for IC50PTP/IC50SHP2 PP5, answers given:
                                   compound  result
0  Cn1cc(-c2ccc(NC(=O)C(=O)Nc3ccc(-c4cc5cc(F)c(-c6nnc(C(F)(F)F)[nH]6)cc5n4C4CCC4)cc3)cc2)cn1   139.7
1  CC1(n2c(-c3ccc(NC(=O)C(=O)Nc4ccc(N5CCC6(CCOC6)CC5)cc4)cc3)cc3cc(F)c(-c4nnn[nH]4)cc32)CCC1   520.8

I am curious: what IC50PTP/IC50SHP2 PP5 value has been reported for O=C(Nc1ccc(-c2cc3cc(F)c(-c4nnn[nH]4)cc3n2C2CCC2)cc1)C(=O)Nc1ccc(N2CCC3(CCOC3)CC2)cc1 ?
2941

I am curious: what IC50PTP/IC50SHP2 PP5 value has been reported for O=C(Nc1ccc(-c2cc3cc(F)c(-c4nnn[nH]4)cc3n2C2CCC2)cc1)C(=O)Nc1ccc(N2CC3COCC3C2)cc1 (stereo not drawn) ?
1388

I am curious: what IC50PTP/IC50SHP2 PP5 value has been reported for O=C(Nc1ccc(-c2ccsc2)cc1)C(=O)Nc1ccc(-c2cc3ccc(-c4nnn[nH]4)nc3n2C2CCC2)cc1 ?
847.5

I am curious: what IC50PTP/IC50SHP2 PP5 value has been reported for O=C(Nc1ccc(-c2ccsc2)cc1)C(=O)Nc1ccc(-c2cc3cnc(-c4nnn[nH]4)nc3n2C2CCC2)cc1 ?
1923.1

I am curious: what IC50PTP/IC50SHP2 PP5 value has been reported for O=C(Nc1ccc(-c2cc3cc(F)c(-c4nnn[nH]4)cc3n2C2CCC2)cc1)C(=O)Nc1ccc(N2CCOCC2)cc1 ?
1587

I am curious: what IC50PTP/IC50SHP2 PP5 value has been reported for O=C(Nc1ccc(-c2ccsc2)cc1)C(=O)Nc1ccc(-c2cc3cc(F)c(-c4nnn[nH]4)cc3n2C2CCC2)cc1 ?
1724.1

I am curious: what IC50PTP/IC50SHP2 PP5 value has been reported for Cn1cc(-c2ccc(NC(=O)C(=O)Nc3ccc(-c4cc5cc(F)c(-c6noc(=O)[nH]6)cc5n4C4CCC4)cc3)cc2)cn1 ?
709.2

I am curious: what IC50PTP/IC50SHP2 PP5 value has been reported for O=C(Nc1ccc(-c2ccsc2)cc1)C(=O)Nc1ccc(-c2oc3cc(F)c(-c4nnn[nH]4)cc3c2C2CCC2)cc1 ?
2000

I am curious: what IC50PTP/IC50SHP2 PP5 value has been reported for O=C(Nc1ccc(-c2oc3cc(F)c(-c4nnn[nH]4)cc3c2C2CCC2)cc1)C(=O)Nc1ccc(N2CCC3(CCOC3)CC2)cc1 ?
1960.8

I am curious: what IC50PTP/IC50SHP2 PP5 value has been reported for O=C(Nc1ccc(-c2ccsc2)cc1)C(=O)Nc1ccc(-c2cc3cc(F)c(-c4nnn[nH]4)nc3n2C2CCC2)cc1 ?
1851.9

----------
System Under Test: PTP1B (Homo sapiens, UniProt P18031)
Sequence (P18031 1-435): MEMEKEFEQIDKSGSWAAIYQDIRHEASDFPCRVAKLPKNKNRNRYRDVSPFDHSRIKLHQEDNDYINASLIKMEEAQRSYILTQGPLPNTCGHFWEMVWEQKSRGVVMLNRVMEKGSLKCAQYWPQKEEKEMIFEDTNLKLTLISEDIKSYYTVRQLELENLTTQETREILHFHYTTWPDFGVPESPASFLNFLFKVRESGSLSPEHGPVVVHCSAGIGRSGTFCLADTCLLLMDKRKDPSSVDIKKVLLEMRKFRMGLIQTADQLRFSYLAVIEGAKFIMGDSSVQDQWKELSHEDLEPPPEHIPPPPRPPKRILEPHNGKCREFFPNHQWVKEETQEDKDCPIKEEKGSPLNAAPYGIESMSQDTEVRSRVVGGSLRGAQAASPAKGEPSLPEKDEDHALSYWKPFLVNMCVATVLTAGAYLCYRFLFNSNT
Measure Name: pIC50
pIC50 (log units): -log10 of the concentration in mol/L.

                                   compound  readout_number
0  O=C(Nc1ccc(-c2ccsc2)cc1)C(=O)Nc1ccc(-c2oc3cc(F)c(-c4nnn[nH]4)cc3c2C2CCC2)cc1            4.94
1  Cn1c(-c2cccc(NC(=O)C(=O)Nc3ccc(-c4ccsc4)cc3)c2)c(I)c2cc(C(=O)O)c(O)cc21 [Example 11a-1, reference compound]            5.64
2  O=C(Nc1ccc(-c2ccsc2)cc1)C(=O)Nc1ccc(-c2cc3ccc(-c4nnn[nH]4)nc3n2C2CCC2)cc1            5.07

I am curious: what pIC50 value has been reported for O=C(Nc1ccc(-c2cc3cc(F)c(-c4nnn[nH]4)cc3n2C2CCC2)cc1)C(=O)Nc1ccc(N2CCOCC2)cc1 ?
6.43
